Where do the numbers come from? From paper PMC7071106.

system: Giardia duodenalis; test: In vitro giardicidal susceptibility assay (trophozoite growth inhibition); assay type: cell-based, Giardia duodenalis (G. intestinalis strain IMSS:0696:1); details: Giardia duodenalis, 48 h, trophozoites, 48 h incubation then 48 h subculture; means of three experiments; read-out: IC50 G. duodenalis
Would you kindly list pIC50 for each of these compounds?
Give bare numbers, as −log10 of the molar value.

compound: Cc1ncc([N+](=O)[O-])n1CC(C)OC(=O)NC1CCCCC1 (stereo not drawn) [Compound 6]
quantity-kind: pIC50
endpoint-value: 5.58
//
compound: Cc1ncc([N+](=O)[O-])n1CCOC(=O)Nc1ccc(Cl)cc1 [Compound 3]
quantity-kind: pIC50
endpoint-value: 5.94
//
compound: Cc1ncc([N+](=O)[O-])n1CC(C)OC(=O)Nc1ccccc1 (stereo not drawn) [Compound 7]
quantity-kind: pIC50
endpoint-value: 5.78
//
compound: Cc1ncc([N+](=O)[O-])n1CC(C)OC(=O)Nc1ccc(Cl)cc1 (stereo not drawn) [Compound 8]
quantity-kind: pIC50
endpoint-value: 5.39
//
compound: Cc1ncc([N+](=O)[O-])n1CC(C)OC(=O)Nc1ccc(F)cc1 (stereo not drawn) [Compound 9]
quantity-kind: pIC50
endpoint-value: 5.49

Can you look up pIC50 on Giardia duodenalis for Cc1ncc([N+](=O)[O-])n1CCOC(=O)Nc1ccc([N+](=O)[O-])cc1 [Compound 5] ?
5.61

====

Would you kindly list pIC50 for each of these compounds?
test system: Trichomonas vaginalis; assay: In vitro trichomonicidal susceptibility assay (trophozoite growth inhibition); type: cell-based, Trichomonas vaginalis strain GT3; conditions: Trichomonas vaginalis; trophozoites, 48 h incubation then 48 h subculture; means of three experiments; read-out: IC50 T. vaginalis
Give bare numbers, as −log10 of the molar value.

These recorded examples may help you get a feel for the data.
compound: Cc1ncc([N+](=O)[O-])n1CC(C)OC(=O)Nc1ccc(F)cc1 (stereo not drawn)
pIC50: 5.32
//
compound: Cc1ncc([N+](=O)[O-])n1CCOC(=O)Nc1ccc([N+](=O)[O-])cc1
pIC50: 5.20
//
compound: Cc1ncc([N+](=O)[O-])n1CC(C)OC(=O)Nc1ccccc1 (stereo not drawn)
pIC50: 5.19

Give pIC50 for each listed item.
1. Cc1ncc([N+](=O)[O-])n1CC(C)OC(=O)Nc1ccc([N+](=O)[O-])cc1 (stereo not drawn)
2. Cc1ncc([N+](=O)[O-])n1CCOC(=O)Nc1ccc(F)cc1
3. Cc1ncc([N+](=O)[O-])n1CCO [Metronidazole, metronidazole, reference compound]
4. Cc1ncc([N+](=O)[O-])n1CC(C)OC(=O)NC1CCCCC1 (stereo not drawn)
5. Cc1ncc([N+](=O)[O-])n1CCOC(=O)Nc1ccc(Cl)cc1
6. Cc1ncc([N+](=O)[O-])n1CCOC(=O)Nc1ccccc1

1. 5.00
2. 5.49
3. 6.03
4. 5.06
5. 5.75
6. 7.05

====

test system: Trichomonas vaginalis; assay: In vitro trichomonicidal susceptibility assay (trophozoite growth inhibition); format: cell-based, Trichomonas vaginalis strain GT3; conditions: CC50 VERO cells / IC50 T. vaginalis
quantity-kind: SI = CC50/IC50 T. vaginalis

These recorded examples may help you get a feel for the data.
compound: Cc1ncc([N+](=O)[O-])n1CCOC(=O)Nc1ccccc1
endpoint-value: >1111

compound: Cc1ncc([N+](=O)[O-])n1CC(C)OC(=O)Nc1ccccc1 (centres unmarked)
endpoint-value: >15

compound: Cc1ncc([N+](=O)[O-])n1CC(C)OC(=O)Nc1ccc([N+](=O)[O-])cc1 (centres unmarked)
endpoint-value: >10

compound: Cc1ncc([N+](=O)[O-])n1CC(C)OC(=O)Nc1ccc(F)cc1 (centres unmarked)
endpoint-value: >20

compound: Cc1ncc([N+](=O)[O-])n1CCOC(=O)NC1CCCCC1
endpoint-value: >1666

compound: Cc1ncc([N+](=O)[O-])n1CCOC(=O)Nc1ccc(Cl)cc1
endpoint-value: >55

compound: Cc1ncc([N+](=O)[O-])n1CC(C)O (centres unmarked) [Secnidazole, secnidazole, reference compound]
endpoint-value: >7

compound: Cc1ncc([N+](=O)[O-])n1CC(C)OC(=O)Nc1ccc(Cl)cc1 (centres unmarked)
endpoint-value: >16

Give SI = CC50/IC50 T. vaginalis for each listed item.
1. Cc1ncc([N+](=O)[O-])n1CCOC(=O)Nc1ccc(F)cc1
2. Cc1ncc([N+](=O)[O-])n1CCOC(=O)Nc1ccc([N+](=O)[O-])cc1
3. Cc1ncc([N+](=O)[O-])n1CC(C)OC(=O)NC1CCCCC1 (centres unmarked)

1. >31
2. >16
3. >11
